# Test system: MARK4
# Test Conditions: concentration: 1 μM, replicates: in singlicate; n = 1;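 note: KINOMEscan kinase panel screen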
Reported %Inh values are given for each entry in this list.
All answers are understood in %, so give the number only.

CCC(=O)c1c(-c2ccccc2)c2cc(Cl)ccc2c(=O)n1Cc1cc(S(C)(=O)=O)n(CC(F)F)n1 ... 0

Field %Inh (MARK4), entry CCS(=O)c1ccc(-c2coc3ccc(-c4nnc(C)o4)cc23)cc1 (centres unmarked) : 0

Reported MARK4 %Inh for item `CN1C(=O)C(Nc2ccccc2)=C(c2ccccc2)C1=O` was 12

Form field %Inh for item `OCCCNc1nccc(-c2c(-c3cccc(C(F)(F)F)c3)nn3cc(C(F)(F)F)ccc23)n1` on MARK4: 0

Let me check: `CN1C(=O)C(Nc2cc(Cl)c(O)c(Cl)c2)=C(c2ccc(Cl)cc2)C1=O` , system MARK4, measured %Inh is 0

The reported MARK4 %Inh of `COc1cc2ncn(-c3cc(OCc4ccncc4)c(C(N)=O)s3)c2cc1OC` is 0

Here `CCCC(=O)Nc1n[nH]c2ncc(-c3cccc4ccccc34)cc12` was tested on MARK4, and its %Inh came to 0

MARK4 assay, compound COc1cc(Nc2nccc(N3CCC(NC(=O)C4COc5ccccc5O4)C3)n2)cc(OC)c1OC (centres unmarked) , recorded %Inh = 0

Response field %Inh (MARK4) for item `CCC(=O)c1c(-c2ccccc2)c2cc(Cl)ccc2c(=O)n1Cc1cc(C(=O)NC2CC2)n(C)n1` : 13

Summary: `Cc1nnc(-c2ccc(C)c(-c3ccc(C(=O)O)cc3)c2)o1` , MARK4, %Inh = 21

Record `Cl.c1ccc(Cn2cnc3cc(Nc4ncnc5ccccc45)ccc32)cc1` has MARK4 %Inh equal to 0

The measured %Inh that `COc1ccc(-n2cnc3c(N)ncnc32)cc1` showed for MARK4 is 19

Field %Inh (MARK4), entry `COc1ccc(-c2coc3ccc(-c4nnc(SCc5cccc(C#N)c5)o4)cc23)cc1` : 13

MARK4 assay, compound `FC(F)(F)c1ccc(-c2ncn(CCCN3CCOCC3)c2-c2ccncc2)cc1` , recorded %Inh = 20

Entry `Cc1cccc(-c2cc(-c3c[nH]nc3-c3ccccn3)ccn2)c1` , tested on MARK4, has a reported %Inh of 0

Noted %Inh for `Nc1n[nH]c2nnc(-c3ccccc3)c(-c3ccccc3)c12` , tested on MARK4: 0

Tested system MARK4; %Inh recorded for `Cc1cc(Nc2nc(-c3cccc(C)n3)nc3ccccc23)ccn1` was 27

Field %Inh (MARK4), entry `Nc1ncnc2c1ncn2-c1cccc(F)c1` : 0

Item `Cc1nn2c(=O)cc(N3CCOCC3)nc2n1Cc1cccc(Cl)c1Cl` ; assay system MARK4; %Inh reported as 0

Hey, MARK4 data for `O=C(NCc1cccs1)c1cc(C(=O)c2c(Cl)cccc2Cl)c[nH]1` : %Inh came out at 0

====

# Test system: TIE2
# Construct: gene TEK
# Test Conditions: concentration: 1 μM, replicates: in singlicate; n = 1
Observable: %Inh (%)
Please give a number only; it is taken to be in %.

For orientation, consider the following solved cases.
CCC(=O)c1c(-c2ccccc2)c2cc(Cl)ccc2c(=O)n1Cc1cc(S(C)(=O)=O)n(CC(F)F)n1 ... 2
COc1cc2nccc(Nc3ccc(OCc4ccc(NC(C)=O)cc4)cc3)c2cc1OC.Cl ... 1

Record COc1ccc(Nc2nccc(N3CCC(NS(=O)(=O)c4ccc(NC(C)=O)cc4)C3)n2)cc1 (stereo not shown) ; system TIE2; %Inh = 8

Per the reported TIE2 data, `COc1cc2ncn(-c3cc(OCc4ccncc4Br)c(C(N)=O)s3)c2cc1OC` has %Inh of 6
